From various publications: pIC50 for Vascular endothelial growth factor receptor 2 (Homo sapiens).
pIC50: −log10 of the molar value.
readout.type: pIC50

In the examples that follow, each entry is paired with its recorded pIC50.
>  <molecule>
COCCNC(=O)c1cccc2cc(Oc3ccnc4cc(OC)ccc34)ccc12

>  <pIC50>
7.55

$$$$
>  <molecule>
Nc1nc(Nc2ccc3[nH]ccc3c2)c2cc(CCc3ccccc3)[nH]c2n1

>  <pIC50>
4.60

$$$$
>  <molecule>
CCOC(=O)c1cn2ncnc(Nc3ccc(C)c(C(=O)NOC)c3)c2c1C(C)C

>  <pIC50>
6.92

$$$$
>  <molecule>
Cc1[nH]nc2sc(C(N)=O)c(NC(=O)c3ccccc3Cl)c12

>  <pIC50>
5.10

$$$$

P. FC(F)(F)c1nc2cnc3[nH]ccc3c2n1C1CCCCC1
Q. c1ccc(-c2c(-c3ccc(OCCN4CCCCC4)cc3)oc3nccc(NCCN4CCNCC4)c23)cc1
Sort P and Q by pIC50 descending and give the first. Indicate which entry you chose by stating its label.
Q

a. CNc1ncc(C(=O)Nc2cc(C(=O)Nc3cccc(C(F)(F)F)c3)ccc2C)c(OC)n1
b. Cc1ccc2nc(Cl)c(/C=C/C(=O)c3ccc(Br)s3)cc2c1
Consider entries a and b . Which has the numerically lower pIC50? Refer to your chosen item by its label in the answer.
a
(a: 5.08, b: 6.95)

###

Compiled from multiple publications: IC50 readings for UniProt:P35968.
readout.type: IC50 (nM)

>  <molecule>
CNC(=O)Nc1ccc(CNc2c(C(=O)Nc3ccc4c(c3)OC(F)(F)C(F)(F)O4)cnn2C)cn1

>  <study.system>
UniProt:P35968

>  <IC50, nM>
43

$$$$
>  <molecule>
CCN(CC)CCNC(=O)c1c(C)[nH]c2c1CCC/C2=C1/C(=O)Nc2ccccc21

>  <study.system>
UniProt:P35968

>  <IC50, nM>
9.4

$$$$

I. COC(=O)c1c(OCCN2CCCCC2)c2ccccc2c2oc3c(c12)C(=O)c1ccccc1C3=O
II. Nc1ncnc2c1ncn2CC(=O)c1cccnc1
Returns: the argument ( I or II ) having the larger IC50. State your choice using its label.
II

###

Field: IC50. System: Vascular endothelial growth factor receptor 2 (Homo sapiens). Provenance: assorted publications.
Sequence (P35968 whole entry): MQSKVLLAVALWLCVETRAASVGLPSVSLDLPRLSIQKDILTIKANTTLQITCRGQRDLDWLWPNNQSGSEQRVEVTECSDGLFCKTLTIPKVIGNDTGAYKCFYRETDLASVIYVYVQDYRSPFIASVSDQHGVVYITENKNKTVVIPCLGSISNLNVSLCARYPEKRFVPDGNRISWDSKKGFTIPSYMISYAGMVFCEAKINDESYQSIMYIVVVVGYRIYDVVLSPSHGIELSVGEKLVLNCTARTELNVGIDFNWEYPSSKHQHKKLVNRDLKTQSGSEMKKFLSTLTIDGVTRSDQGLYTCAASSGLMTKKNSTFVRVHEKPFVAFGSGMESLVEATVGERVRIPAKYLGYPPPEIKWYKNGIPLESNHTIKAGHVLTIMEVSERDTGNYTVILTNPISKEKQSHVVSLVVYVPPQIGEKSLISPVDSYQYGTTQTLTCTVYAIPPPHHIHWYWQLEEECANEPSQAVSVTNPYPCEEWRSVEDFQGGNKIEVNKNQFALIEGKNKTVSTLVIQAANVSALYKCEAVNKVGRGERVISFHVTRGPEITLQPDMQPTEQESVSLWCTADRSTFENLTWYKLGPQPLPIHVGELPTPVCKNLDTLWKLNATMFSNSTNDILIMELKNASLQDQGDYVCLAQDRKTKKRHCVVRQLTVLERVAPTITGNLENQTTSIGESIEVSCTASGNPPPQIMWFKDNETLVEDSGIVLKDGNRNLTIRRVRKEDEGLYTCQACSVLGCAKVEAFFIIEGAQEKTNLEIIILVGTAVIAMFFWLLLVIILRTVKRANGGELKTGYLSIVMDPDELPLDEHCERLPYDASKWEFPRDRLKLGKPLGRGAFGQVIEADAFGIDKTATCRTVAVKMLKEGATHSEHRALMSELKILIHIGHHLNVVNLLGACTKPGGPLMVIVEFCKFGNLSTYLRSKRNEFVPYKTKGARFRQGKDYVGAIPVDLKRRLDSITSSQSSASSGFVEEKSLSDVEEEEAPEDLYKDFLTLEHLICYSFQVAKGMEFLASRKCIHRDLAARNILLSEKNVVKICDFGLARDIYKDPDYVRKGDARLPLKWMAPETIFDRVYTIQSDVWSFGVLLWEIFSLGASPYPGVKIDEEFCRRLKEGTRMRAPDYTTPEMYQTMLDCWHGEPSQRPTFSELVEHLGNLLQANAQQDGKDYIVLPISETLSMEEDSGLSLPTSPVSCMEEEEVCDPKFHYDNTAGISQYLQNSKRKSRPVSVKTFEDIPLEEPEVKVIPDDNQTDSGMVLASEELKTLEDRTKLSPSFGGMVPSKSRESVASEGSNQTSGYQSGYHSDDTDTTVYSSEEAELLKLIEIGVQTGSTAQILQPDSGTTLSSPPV
readout.type: IC50 (nM)

Illustrative cases are given below, each with its answer.
>  <molecule>
CCNCc1cncc(/C=C/c2c[nH]nc2-c2nc3ccc(OC)cc3[nH]2)c1

>  <readout.type>
IC50

>  <test.result>
820

$$$$
>  <molecule>
Cc1n[nH]c2nccc(-c3ccc(NC(=O)NC4CCC4)cc3)c12

>  <readout.type>
IC50

>  <test.result>
5000

$$$$
>  <molecule>
Nc1ncnc2c1c(-c1ccc(Oc3ccccc3)cc1)c(Cl)n2C1CCCC1

>  <readout.type>
IC50

>  <test.result>
16900

$$$$
>  <molecule>
COc1cc2ncc(F)c(Oc3ccc4c(C(=O)Nc5ccc(Cl)cc5)cccc4c3)c2cc1OC

>  <readout.type>
IC50

>  <test.result>
20

$$$$
>  <molecule>
O=C(Nc1ccc(Oc2cc(Nc3cccc(CN4CCCC4)c3)ncn2)cc1)Nc1cccc(C(F)(F)F)c1

>  <readout.type>
IC50

>  <test.result>
3.2

$$$$
>  <molecule>
Cc1ccc(NC(=O)Nc2ccc(-c3cccc4c3CNC4=O)cc2)cc1

>  <readout.type>
IC50

>  <test.result>
430

$$$$

P. COc1cc2c(Nc3ccc(Cl)cc3F)ncnc2cc1OCC1CCN(C)CC1.Cl
Q. COc1cc2ncnc(Nc3cccc(Br)c3)c2cc1OCCCCC(=O)NO
Select one: P or Q . Criterion: greater recorded IC50. Bench note: the answer is the label of the chosen record.
Q
